- ASSAYED_SYSTEM: CCXCKR2 receptor (Homo sapiens, UniProt P25106)
- Construct: expressed in transfected cells; host or cells: MDA-MB-435S transfected with pcDNA3.1(+)-hRDC1 and/or MCF-7 (endogenous receptor)
- Sequence (P25106 whole entry): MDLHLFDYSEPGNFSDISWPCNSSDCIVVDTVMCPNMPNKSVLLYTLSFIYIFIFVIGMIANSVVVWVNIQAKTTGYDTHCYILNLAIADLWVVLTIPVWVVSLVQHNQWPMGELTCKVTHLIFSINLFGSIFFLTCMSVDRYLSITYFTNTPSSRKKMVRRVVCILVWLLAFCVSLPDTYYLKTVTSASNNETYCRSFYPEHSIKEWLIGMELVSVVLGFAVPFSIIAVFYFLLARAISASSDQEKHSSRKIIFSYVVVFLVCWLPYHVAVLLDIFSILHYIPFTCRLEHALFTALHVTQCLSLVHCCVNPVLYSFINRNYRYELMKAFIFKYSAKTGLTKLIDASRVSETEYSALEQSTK
- ASSAY_EXPLANATION: Displacement of 125I-labeled SDF-1 from the CCXCKR2 receptor on MCF-7 and/or CCXCKR2-transfected MDA-MB-435S cells (radioligand binding, filtration)
- EXPERIMENTAL_PARAMETERS: 125I SDF-1, 3 hr at 4° C., MCF-7 and/or MDA-MB-435S cells; read-out: Activity (concentration displacing at least 50% of the SDF-1 from the CCXCKR2 receptor)
pIC50: −log10 of the molar value.
Measured pIC50, listed per entry for reference.
READOUT_LABEL: pIC50

{"INPUT_SMILES": "COc1ccc(C(=O)c2cn(Cc3cccc(C)n3)c3nc(C)c(C)cc3c2=O)cc1C", "ASSAYED_SYSTEM": "CCXCKR2 receptor (Homo sapiens, UniProt P25106)", "READOUT_LABEL": "pIC50", "EXPERIMENTAL_RESULT": "6.30 to 7.00"}
{"INPUT_SMILES": "O=C(c1ccc2c(n1)CCCC2)c1cn(Cc2cccc(Br)n2)c2ccccc2c1=O", "ASSAYED_SYSTEM": "CCXCKR2 receptor (Homo sapiens, UniProt P25106)", "READOUT_LABEL": "pIC50", "EXPERIMENTAL_RESULT": "> 7.00"}
{"INPUT_SMILES": "Cc1ccc(C(=O)c2cn(Cc3ccccc3C)c3cc4c(cc3c2=O)OCCO4)cc1C", "ASSAYED_SYSTEM": "CCXCKR2 receptor (Homo sapiens, UniProt P25106)", "READOUT_LABEL": "pIC50", "EXPERIMENTAL_RESULT": "4.70 to 6.30"}
{"INPUT_SMILES": "Cc1cccc(C(=O)c2cn(Cc3ccccc3F)c3ccccc3c2=O)c1", "ASSAYED_SYSTEM": "CCXCKR2 receptor (Homo sapiens, UniProt P25106)", "READOUT_LABEL": "pIC50", "EXPERIMENTAL_RESULT": "> 7.00"}
{"INPUT_SMILES": "CN(C)Cc1ccccc1C(=O)c1cn(Cc2cccc(Br)n2)c2ccccc2c1=O", "ASSAYED_SYSTEM": "CCXCKR2 receptor (Homo sapiens, UniProt P25106)", "READOUT_LABEL": "pIC50", "EXPERIMENTAL_RESULT": "> 7.00"}
{"INPUT_SMILES": "COc1ccc(C(=O)c2cn(Cc3cccc(Br)n3)c3ccccc3c2=O)c(C)c1", "ASSAYED_SYSTEM": "CCXCKR2 receptor (Homo sapiens, UniProt P25106)", "READOUT_LABEL": "pIC50", "EXPERIMENTAL_RESULT": "> 7.00"}
{"INPUT_SMILES": "COc1ncc(C(=O)c2cn(Cc3cccc(Br)n3)c3ccccc3c2=O)cc1C", "ASSAYED_SYSTEM": "CCXCKR2 receptor (Homo sapiens, UniProt P25106)", "READOUT_LABEL": "pIC50", "EXPERIMENTAL_RESULT": "> 7.00"}
{"INPUT_SMILES": "Cc1cccc(Cn2cc(C(=O)c3ccc4c(c3)OCCO4)c(=O)c3ccccc32)n1", "ASSAYED_SYSTEM": "CCXCKR2 receptor (Homo sapiens, UniProt P25106)", "READOUT_LABEL": "pIC50", "EXPERIMENTAL_RESULT": "> 7.00"}
{"INPUT_SMILES": "Cc1ccc(C(=O)c2cn(Cc3cccc(C)c3F)c3ccccc3c2=O)cc1C", "ASSAYED_SYSTEM": "CCXCKR2 receptor (Homo sapiens, UniProt P25106)", "READOUT_LABEL": "pIC50", "EXPERIMENTAL_RESULT": "> 7.00"}
{"INPUT_SMILES": "Cc1ccc(C(=O)c2cn(Cc3cccc(C(F)(F)F)n3)c3ccccc3c2=O)nc1C", "ASSAYED_SYSTEM": "CCXCKR2 receptor (Homo sapiens, UniProt P25106)", "READOUT_LABEL": "pIC50", "EXPERIMENTAL_RESULT": "> 7.00"}
{"INPUT_SMILES": "Cc1ccc(C(=O)c2cn(Cc3cccc(Br)n3)c3ccccc3c2=O)nc1", "ASSAYED_SYSTEM": "CCXCKR2 receptor (Homo sapiens, UniProt P25106)", "READOUT_LABEL": "pIC50", "EXPERIMENTAL_RESULT": "> 7.00"}
{"INPUT_SMILES": "O=C(NC1CC1)c1ccccc1C(=O)c1cn(Cc2cccc(Br)n2)c2ccccc2c1=O", "ASSAYED_SYSTEM": "CCXCKR2 receptor (Homo sapiens, UniProt P25106)", "READOUT_LABEL": "pIC50", "EXPERIMENTAL_RESULT": "4.70 to 6.30"}
{"INPUT_SMILES": "Cc1ccc(C(=O)c2cn(Cc3cccc(C(=O)O)n3)c3ccccc3c2=O)cc1C", "ASSAYED_SYSTEM": "CCXCKR2 receptor (Homo sapiens, UniProt P25106)", "READOUT_LABEL": "pIC50", "EXPERIMENTAL_RESULT": "4.70 to 6.30"}
{"INPUT_SMILES": "Cc1cc(C(=O)c2cn(Cc3ccccc3F)c3ccccc3c2=O)ccn1", "ASSAYED_SYSTEM": "CCXCKR2 receptor (Homo sapiens, UniProt P25106)", "READOUT_LABEL": "pIC50", "EXPERIMENTAL_RESULT": "4.70 to 6.30"}
{"INPUT_SMILES": "COc1ccc(C(=O)c2cn(Cc3cccc(Br)n3)c3cccnc3c2=O)cc1C", "ASSAYED_SYSTEM": "CCXCKR2 receptor (Homo sapiens, UniProt P25106)", "READOUT_LABEL": "pIC50", "EXPERIMENTAL_RESULT": "4.70 to 6.30"}
{"INPUT_SMILES": "O=C(c1ccc(CN2CCOCC2)cc1)c1cn(Cc2cccc(Br)n2)c2ccccc2c1=O", "ASSAYED_SYSTEM": "CCXCKR2 receptor (Homo sapiens, UniProt P25106)", "READOUT_LABEL": "pIC50", "EXPERIMENTAL_RESULT": "4.70 to 6.30"}
{"INPUT_SMILES": "Cc1cc(Cn2cc(C(=O)c3ccc(C)c(C)c3)c(=O)c3ccccc32)no1", "ASSAYED_SYSTEM": "CCXCKR2 receptor (Homo sapiens, UniProt P25106)", "READOUT_LABEL": "pIC50", "EXPERIMENTAL_RESULT": "6.30 to 7.00"}

Attribution: patent US7557213B2
